Assay: melting temperature; melt of duplexes
Details: sodium 0.0675 M; strand 1 µM
MEASURED_ENDPOINT: Tm (°C)
Answer with a number only, understood to be in °C.

Some substances with recorded Tm:
>>> print(df.to_string())
                                  substance  endpoint_value
0  CGACGTGCGAGATGTGCTG+CAGCACATCTAGCACGTCG ((((((((.((((((((((+)))))))))).))))))))            59.7
1  CGACGTGCAACATGTGCTG+CAGCACATTGCGCACGTCG ((((((((...((((((((+))))))))...))))))))            48.8
2  CGACGTGCATCATGTGCTG+CAGCACATGCGGCACGTCG ((((((((..(((((((((+)))))))))..))))))))            52.7

# evaluate next
Item: CGACGTGCCACATGTGCTG+CAGCACATGTGGCACGTCG (((((((((((((((((((+))))))))))))))))))) | Tm: 66.4
